# System tested: T1, SlHY5 (GST-HY5) (Solanum lycopersicum, UniProt Q9SM50 1-158)
# T1 sequence: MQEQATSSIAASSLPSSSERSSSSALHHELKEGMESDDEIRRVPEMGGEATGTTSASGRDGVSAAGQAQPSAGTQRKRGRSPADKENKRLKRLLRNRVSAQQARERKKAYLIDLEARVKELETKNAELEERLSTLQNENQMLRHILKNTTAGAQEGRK
# Assay protocol: EMSA; LightShift Chemiluminescent EMSA kit, 25 min at 22 C, 6% native PAGE; buffer, salt and pH not stated
# Settings: protein: recombinant; tags: GST (pGEX-4T-1); chain copies: 2; label: biotin; blunt

Binder	binding result
GAME12 probe (dsDNA) DNA 1: GAAACGATATAATATACGTGATACAAGTTTATTAATAAATCAATGGCCCA DNA 2: TGGGCCATTGATTTATTAATAAACTTGTATCACGTATATTATATCGTTTC	no binding
GAME6 probe (dsDNA) DNA 1: ATAATAACACCGTTTCTCTGCTTTAAGCGTGCTTTTTATCTCATAACTAAAAACT DNA 2: AGTTTTTAGTTATGAGATAAAAAGCACGCTTAAAGCAGAGAAACGGTGTTATTAT	no binding
